- Assay Target: human MMP-9 (gelatinase B) (Homo sapiens, UniProt P14780)
- Construct: endogenous in cells; host or cells: HT1080 human fibrosarcoma cells (ATCC CCL-121), PMA-stimulated; enzyme purified from the culture supernatant
- Sequence (P14780 107-707 limits assumed): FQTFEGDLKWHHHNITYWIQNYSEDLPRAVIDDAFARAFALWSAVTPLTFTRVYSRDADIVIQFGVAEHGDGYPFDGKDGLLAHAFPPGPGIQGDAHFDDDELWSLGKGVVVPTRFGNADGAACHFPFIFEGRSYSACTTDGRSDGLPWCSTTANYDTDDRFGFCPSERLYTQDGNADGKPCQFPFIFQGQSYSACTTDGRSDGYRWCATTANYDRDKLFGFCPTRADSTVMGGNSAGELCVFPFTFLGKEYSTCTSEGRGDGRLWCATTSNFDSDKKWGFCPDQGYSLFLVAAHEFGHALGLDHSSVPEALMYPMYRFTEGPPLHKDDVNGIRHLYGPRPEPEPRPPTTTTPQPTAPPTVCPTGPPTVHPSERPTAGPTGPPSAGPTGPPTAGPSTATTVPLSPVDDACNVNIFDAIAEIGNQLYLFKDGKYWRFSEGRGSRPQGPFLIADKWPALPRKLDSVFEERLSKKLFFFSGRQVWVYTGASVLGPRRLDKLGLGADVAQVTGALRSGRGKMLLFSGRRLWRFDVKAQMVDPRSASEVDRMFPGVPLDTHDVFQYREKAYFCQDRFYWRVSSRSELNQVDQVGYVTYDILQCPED
- Protocol Notes: Inhibition activity against human MMP-9 (gelatinase B), fluorescent peptide substrate
- Type: biochemical
- Measurement Conditions: compounds of the formula (I); 2nd measurement; read-out: MMP-9 inhibition activities IC50, 2nd
- Method: Human MMP-9 (gelatinase B) was purified by the following method from a culture supernatant of HT1080 cells (human fibrosarcoma). […] The inhibition activity against human MMP-9 was measured by the following method in accordance with the method by C. […]
pIC50: −log10 of the molar value.
Endpoint: pIC50

Please review the entries below; each comes with its answer.
Compound | Reading
C=CCOc1cc(C(F)(F)F)cc(NNC(=C[N+](=O)[O-])NC)n1 [compound 130] | 5.08
CNC(=C[N+](=O)[O-])NNc1cc(C(F)(F)F)ncn1 [compound 97] | 4.45
CNC(=C[N+](=O)[O-])NNc1nc(OC)nc(OC)n1 [compound 104] | 4.76

A = CNC(=C[N+](=O)[O-])NNc1ccc(C(F)(F)F)cn1 [Compound No. 19]
B = NNC(=C[N+](=O)[O-])Nc1cccnc1 [compound 50]
**Q:** Return label of the item with the larger pIC50. Candidates: A , B . Select an item and report its label.
**A:** A
(A: 4.88, B: 4.64)

1 = CNC(=C[N+](=O)[O-])NNc1cc(OC)nc(OC)n1 [compound 101]
2 = CCCCNC(=C[N+](=O)[O-])NN [compound 85]
**Q:** Return label of the item with the larger pIC50. Candidates: 1 , 2 . Select an item and report its label.
**A:** 1
